Where these numbers come from: patent US7390806B2

- System: S. aureus ATCC 29213
- ASSAY_METHOD_TEXT: MIC determination, S. aureus ATCC 29213
- Assay type: cell-based, Staphylococcus aureus
- RUN_CONDITIONS: Table 2
For each entry below, report its MIC S. aureus ATCC 29213 value.
One number for each entry, in micrograms per ml.

In the examples that follow, each entry is paired with its recorded MIC S. aureus ATCC 29213.
• CC1(C)O[B-](c2cccc(Cl)c2)(c2cccc(Cl)c2)[n+]2cccc(O)c21 = 0.5
• O=C(O)c1ncccc1O [Compound 115, 3-hydroxypicolinic acid] = 2
• O=C(O)c1ncccc1O [Compound 117, 3-hydroxypicolinic acid] = 2

Please report MIC S. aureus ATCC 29213 for every entry that follows.
1. O=C(O)c1ncccc1O [Compound 112, 3-hydroxypicolinic acid]
2. O=C(O)c1ncccc1O [Compound 113, 3-hydroxypicolinic acid]
3. Cc1cc(Cl)ccc1B(OC(=O)c1ncccc1O)c1ccc(Cl)cc1C
4. CC1(C)O[B-](c2ccc(Cl)cc2)(c2ccc(Cl)cc2)[n+]2cccc(O)c21
5. CC1(C)S[C@@H]2[C@H](NC(=O)Cc3ccccc3)C(=O)N2[C@H]1C(=O)O [Pen G, reference compound]

1. 4
2. 0.5
3. 1
4. 0.25
5. 0.5

Please report MIC S. aureus ATCC 29213 for every entry that follows.
1. Clc1cccc(B(OCCc2c[nH]cn2)c2cccc(Cl)c2)c1
2. O=C(O)c1ncccc1O [Compound 116, 3-hydroxypicolinic acid]
3. O=C(O)c1ncccc1O [Compound 114, 3-hydroxypicolinic acid]
4. Cc1ccc(B(OC(=O)c2ncccc2O)c2ccc(C)c(Cl)c2)cc1Cl

0.125
2
0.125
2

Please report MIC S. aureus ATCC 29213 for every entry that follows.
1. CC(=O)Oc1ccc[n+]2c1C(=O)O[B-]2(c1ccc(C)c(Cl)c1)c1ccc(C)c(Cl)c1
2. Cc1ccc([B-]2(c3ccc(C)c(Cl)c3)OC(=O)c3c(OCCCC(=O)O)ccc[n+]32)cc1Cl

[2, 1]
